These entries and their values trace back to patent US20230150981A1.

# TARGET: SSTR4 (Homo sapiens, UniProt P31391)
# Construct: host or cells: CHO-K1
# Sequence (P31391 whole entry): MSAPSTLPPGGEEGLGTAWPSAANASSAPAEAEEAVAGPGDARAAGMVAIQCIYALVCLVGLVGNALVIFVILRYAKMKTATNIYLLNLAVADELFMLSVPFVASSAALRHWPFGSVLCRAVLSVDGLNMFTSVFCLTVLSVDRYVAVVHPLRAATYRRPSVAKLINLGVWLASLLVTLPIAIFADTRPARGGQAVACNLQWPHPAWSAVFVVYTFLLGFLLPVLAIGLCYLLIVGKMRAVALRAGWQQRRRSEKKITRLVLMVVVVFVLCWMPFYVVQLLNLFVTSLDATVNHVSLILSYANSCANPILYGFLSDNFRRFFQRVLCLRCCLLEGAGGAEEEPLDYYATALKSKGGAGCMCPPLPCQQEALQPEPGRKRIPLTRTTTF
# PROTOCOL_TEXT: Inhibition of forskolin stimulated cAMP in CHO-K1 cells overexpressing SSTR4
# Type: cell-based
# EXPERIMENTAL_CONDITIONS: read-out: SSTR4 Activity pEC50 (converted)
OUTCOME_MEASURE: EC50 (µM)

Solved cases below.
[
  {
    "MOLECULE": "CN1CCCC1CC(=O)NC(C)(C)c1cccc(Cl)c1 (centres unmarked)",
    "EC50, µM": 0.126
  },
  {
    "MOLECULE": "CN1CCC[C@H]1CC(=O)NC(C)(C)COc1nccc2occc12",
    "EC50, µM": 0.126
  },
  {
    "MOLECULE": "COc1ccccc1C(C)(C)NC(=O)[C@@H](C)CN1CCCC1 (single isomer, unassigned)",
    "EC50, µM": 0.631
  },
  {
    "MOLECULE": "Cc1cc2ccccc2c(C(C)(C)NC(=O)C[C@@H]2CCCN2C)n1",
    "EC50, µM": 0.00794
  },
  {
    "MOLECULE": "C[C@@H](CN1CCC1)C(=O)NC(C)(C)c1ccc(Cl)cc1 (single isomer, unassigned)",
    "EC50, µM": 0.00251
  }
]

[a] Cc1ccc(C(CF)NC(=O)CCN2CCC2)cc1 (centres unmarked)
[b] CN1Cc2ccccc2C[C@H]1CC(=O)NC(C)(C)c1nccc2ccccc12
IN: Pick one: a or b . Which one has the lower reported EC50? Pick one; state its label.
OUT: a
(a: 0.02 µM, b: 2 µM)

[a] CN1CCC[C@H]1CC(=O)NC(C)(C)COc1ncccc1OC(F)(F)F
[b] Cc1cccc2c(C(C)(C)NC(=O)CC3NCCC3(F)F)nccc12 (centres unmarked)
[c] CCN1CCC[C@@H]1CC(=O)NC(C)(C)COc1ncccc1C(F)(F)F
[d] CN1CCC[C@H]1CC(=O)NC(C)(C)COc1ncccc1C1CC1
[e] Cc1c(F)cccc1C(C)(C)NC(=O)[C@@H](C)CN1CCC1 (single isomer, unassigned)
IN: Rank the 5 molecules: largest EC50 first, smallest last. As an answer, provide the labels arranged in the order called for.
OUT: e, b, d, a, c

[A] Cc1cccnc1OCC1(NC(=O)[C@H](C)[C@@H]2CCCN2C)CC1 (single isomer, unassigned)
[B] Cc1ccc(C(C)(C)NC(=O)[C@H](C)CN2CCC2)cc1 (single isomer, unassigned)
IN: Hi team, can someone confirm which has the larger EC50: A or B ? Thanks. Pick one; state its label.
OUT: B
(B: 0.501 µM, A: 0.00794 µM)

[A] COc1c(C)cccc1C(C)(C)NC(=O)[C@H](C)CN1CCC1 (single isomer, unassigned)
[B] Cc1ccc([C@H](CF)NC(=O)CCN2CCC2)cc1 (single isomer, unassigned)
IN: Pick one: A or B . Which one has the lower reported EC50? Pick one; state its label.
OUT: A
